Data provenance: PubChem BioAssay (NCI)

# Test system: HCT-15 colon
# method: NCI tumour cell line growth inhibition, 48 h
Where a SMILES comes first, the peptide text is derived from it. The star is where a group is joined. Cbz = O=C(OCc1ccccc1)*
measurement type: TGI

What value of TGI has been reported for the following molecule? NCC(=O)N[C@H]1c2ccsc2/C(=N/O)[C@H]1O
> 100 µM

Input COc1ccc(C2c3cc4c(cc3OC(N3CCOCC3)C2C)OCO4)cc1OC (stereo not given)
> 100 µM

Input CCCCCCCCCCCC1=NC(C)(C)CN1C(C)C
8.76 µM

Input O=[N+]([O-])c1ccc(Cl)c(C2CC(c3cccc4ccccc34)=Nc3ccccc3S2=O)c1 (stereo not given)
> 100 µM

Input CN(C)N1C(=C(C#N)C#N)C(c2ccccc2)CC1C#N (stereo not given)
> 100 µM

Input CCOC(=O)CCC(NC(=O)C(CC(=O)OC)NC(=O)OCc1ccccc1)C(=O)NC(CC(=O)OC)C(=O)NC(CCC(=O)OCC)C(=O)NC(CC(=O)OC)C(=O)NC(CCC(=O)OCC)C(=O)NC(CC(=O)OCC)C(=O)OCC (stereo not given) (Cbz-D(OMe)E(OEt)D(OMe)E(OEt)D(OMe)E(OEt)D(OEt)-OEt; configuration not given here)
> 100 µM

Input Cc1cc(C)c2c(c1)CSCc1cc(C)cc(C)c1-2
> 100 µM

Input CC1OC1C(=O)P(=O)(O)O (stereo not given)
> 100 µM

Input N#C/C=C(/NC(=O)Nc1ccccc1)N1CCCC1
> 100 µM

Input CCOc1cc2c(cc1OC)c[n+](C)c1c3cc(OC)c(OC)cc3ccc21
> 100 µM

Input c1ccc(C/C(=N\Nc2nc3ccccc3[nH]2)c2ccccn2)cc1
15.6 µM

Input CN(C)C(=C1C(Br)=C(Br)C(Br)=C1Br)N(C)C
> 100 µM

Input CCN(CC)P(=O)(c1ccc2c(c1)OCCOCCOCCOCCO2)N(CC)CC
> 100 µM

Input C/C(=N/NC(=S)N1CCCCCC1)c1cccc(/C(C)=N\NC(=S)N2CCCCCC2)n1
5.36 µM

Input NC(=O)N/N=C(\Cc1cc(=O)oc2cc(O)ccc12)C(=O)Nc1ccccc1C(N)=O
> 100 µM

Input CC1=C[C@H](C[C@]2(C)c3c(c4c(C)cccc4oc3=O)O[C@@H]2C)OC1=O
> 100 µM

Input C[N+](C)(N)Cc1nc(-c2ccc(Cl)cc2)no1
> 100 µM

Input Cc1c2ccccc2c(=O)n2c(-c3ccccn3)cccc12
> 100 µM

Input COC1C(OC(=O)/C=C/C=C/C=C/C=C/C(=O)O)CCC2(CO2)C1C1(C)OC1CC=C(C)C (stereo not given)
> 93.9 µM

Input O=S(=O)(c1ccccc1)N1CCC1c1ccccc1 (stereo not given)
> 100 µM

====

Kindly supply the reported TGI values for the records listed here.
# System: CAKI-1 renal
# method: NCI tumour cell line growth inhibition, 48 h

What value of TGI has been reported for the following compound? CCCN(CCC)C1CC(n2cc(C)c(=O)[nH]c2=O)OC1CO (centres undefined)
> 100 µM

Input O=C(CN1CCCCC1)c1ccc2[nH]c(=O)oc2c1
> 100 µM

Input CCN(CC)c1c(-c2c(OC(C)C)c(=O)c2=O)c(=O)n2ccsc2c1OC(C)=O
> 100 µM

Input COC(=O)C12CCCN1CCC2
> 100 µM

Input CCOP(=O)(OCC)/C(C#N)=C/c1nc[nH]c1C
> 100 µM

Input OC(c1ccccc1)c1c(-c2ccccc2)[nH]c(-c2ccccc2)c1C(O)c1ccccc1 (centres undefined)
6.75 µM

Input CCOc1ccc2c(c1)[n+]([O-])c(C(N)=O)c(N)[n+]2[O-]
> 100 µM

Input COc1cccc2c1C(=O)c1c(O)c3c(c(O)c1C2=O)C[C@@](O)(/C(C)=N/NC(=O)c1cccc([N+](=O)[O-])c1)C[C@@H]3OC1CC(N)C(O)C(C)O1 (some centres undefined)
2.74 µM

Input CC[O-].CC[O-].[O-]c1ccccc1C=NC12CC3CC(CC(C3)C1)C2.[O-]c1ccccc1C=NC12CC3CC(CC(C3)C1)C2.[Ti+4]
> 100 µM
